Answer each item with its documented remaining activity.
Target: Phospholipase D2 (Homo sapiens) (UniProt O14939)
Sequence (O14939 whole entry, looked up): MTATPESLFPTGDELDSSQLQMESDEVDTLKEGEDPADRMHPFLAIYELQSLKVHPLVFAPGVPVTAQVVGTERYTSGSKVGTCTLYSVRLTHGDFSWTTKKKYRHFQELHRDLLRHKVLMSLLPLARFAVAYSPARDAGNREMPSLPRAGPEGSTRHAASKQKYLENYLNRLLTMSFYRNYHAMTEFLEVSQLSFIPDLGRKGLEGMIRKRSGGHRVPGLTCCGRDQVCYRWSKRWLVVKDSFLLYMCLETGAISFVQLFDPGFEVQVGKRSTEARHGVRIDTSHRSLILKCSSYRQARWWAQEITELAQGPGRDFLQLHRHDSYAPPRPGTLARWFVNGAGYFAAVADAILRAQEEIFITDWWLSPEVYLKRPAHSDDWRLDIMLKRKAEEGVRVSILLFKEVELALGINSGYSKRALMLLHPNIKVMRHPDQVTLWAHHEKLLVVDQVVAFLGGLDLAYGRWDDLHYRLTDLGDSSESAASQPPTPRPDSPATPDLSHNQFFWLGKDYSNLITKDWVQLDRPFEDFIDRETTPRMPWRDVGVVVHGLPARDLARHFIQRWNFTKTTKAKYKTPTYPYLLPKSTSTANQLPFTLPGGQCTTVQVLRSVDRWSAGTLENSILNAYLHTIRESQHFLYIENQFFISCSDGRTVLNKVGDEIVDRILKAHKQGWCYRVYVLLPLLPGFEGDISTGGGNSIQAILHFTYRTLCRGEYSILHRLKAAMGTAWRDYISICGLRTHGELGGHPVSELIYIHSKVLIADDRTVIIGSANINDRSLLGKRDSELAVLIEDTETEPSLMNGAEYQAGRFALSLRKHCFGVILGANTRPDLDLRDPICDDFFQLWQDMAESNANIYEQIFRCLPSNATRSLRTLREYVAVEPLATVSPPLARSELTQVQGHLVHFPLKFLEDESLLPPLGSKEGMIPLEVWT
Sequence (O14939 whole entry, looked up): as above
Assay: PLD2 inhibitors in cells, cell-based, HEK293, single concentration (AID 602143);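 further: tested at 200 nM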
Settings: HEK293 cellular PLD2 activity, percent of control; active compounds read low
Could you give me the number in %? Just the number is fine.

Query remaining activity for O=C1c2ccccc2C(=O)N1CCN1CCC(n2c(=O)[nH]c3cc(Cl)ccc32)CC1 90.8

Query remaining activity for O=C1c2ccccc2C(=O)N1CCCN1CCC(n2c(=O)[nH]c3ccccc32)CC1 97.3

Query remaining activity for O=C(NCCN1CCC(n2nnc3ccccc32)CC1)c1ccc2ccccc2c1 0.808

Query remaining activity for Cc1cccc(C(=O)NCCN2CCC(n3c(=O)[nH]c4ccccc43)CC2)n1 52.5

Query remaining activity for O=C(NCCN1CCN(c2ccncc2)CC1)c1ccccc1-c1ccccc1 83.2

Query remaining activity for C[C@H](CN1CCC(n2c(=O)[nH]c3cc(Cl)ccc32)CC1)NC(=O)c1cc2ccccc2[nH]1 25

Query remaining activity for O=C(NCCN1CCC(n2c(=O)[nH]c3ccccc32)CC1)c1cc2ccccc2c2ccccc12 51.2

Query remaining activity for C[C@@H](CN1CCC2(C=Cc3ccccc32)CC1)NC(=O)c1ccc2ccccc2c1 147

Query remaining activity for Cc1ccc(C(=O)N[C@@H](C)CN2CCC(n3c(=O)[nH]c4c(F)cccc43)CC2)cc1 98.2

Query remaining activity for O=c1[nH]c2ccccc2n1C1CCN(CCN2CCCC2)CC1 93.8

Query remaining activity for O=c1[nH]c2ccccc2n1C1CCN(CCNS(=O)(=O)c2cccc3cccnc23)CC1 112

Query remaining activity for O=C(NCCN1CCC(n2c(=O)[nH]c3ccccc32)CC1)c1cccc2cccnc12 74.2

Query remaining activity for CC(C)C(=O)N[C@@H](C)CN1CCC(n2c(=O)[nH]c3ccccc32)CC1 106

Query remaining activity for C[C@@H](CN1CCC2(CC1)CCN(C)C2=O)NC(=O)c1cnc2ccccc2c1 113

Query remaining activity for C[C@@H](CN1CCC(n2c(=O)[nH]c3cc(-c4ccsc4)ccc32)CC1)NC(=O)[C@H]1C[C@@H]1c1ccccc1 81.2

Query remaining activity for C[C@@H](CN1CCC(n2c(=O)[nH]c3cc(-c4ccc(F)c(F)c4)ccc32)CC1)NC(=O)[C@H]1C[C@@H]1c1ccccc1 80.4

Query remaining activity for O=C(C1C[C@@H]1c1ccccc1)N1CCC(n2c(=O)[nH]c3cc(Cl)ccc32)CC1 (some centres not stated) 72.5

Origin of values: PubChem BioAssay AID602143
